target: PI3K δ (Homo sapiens, UniProt O00329)
Sequence (O00329 whole entry): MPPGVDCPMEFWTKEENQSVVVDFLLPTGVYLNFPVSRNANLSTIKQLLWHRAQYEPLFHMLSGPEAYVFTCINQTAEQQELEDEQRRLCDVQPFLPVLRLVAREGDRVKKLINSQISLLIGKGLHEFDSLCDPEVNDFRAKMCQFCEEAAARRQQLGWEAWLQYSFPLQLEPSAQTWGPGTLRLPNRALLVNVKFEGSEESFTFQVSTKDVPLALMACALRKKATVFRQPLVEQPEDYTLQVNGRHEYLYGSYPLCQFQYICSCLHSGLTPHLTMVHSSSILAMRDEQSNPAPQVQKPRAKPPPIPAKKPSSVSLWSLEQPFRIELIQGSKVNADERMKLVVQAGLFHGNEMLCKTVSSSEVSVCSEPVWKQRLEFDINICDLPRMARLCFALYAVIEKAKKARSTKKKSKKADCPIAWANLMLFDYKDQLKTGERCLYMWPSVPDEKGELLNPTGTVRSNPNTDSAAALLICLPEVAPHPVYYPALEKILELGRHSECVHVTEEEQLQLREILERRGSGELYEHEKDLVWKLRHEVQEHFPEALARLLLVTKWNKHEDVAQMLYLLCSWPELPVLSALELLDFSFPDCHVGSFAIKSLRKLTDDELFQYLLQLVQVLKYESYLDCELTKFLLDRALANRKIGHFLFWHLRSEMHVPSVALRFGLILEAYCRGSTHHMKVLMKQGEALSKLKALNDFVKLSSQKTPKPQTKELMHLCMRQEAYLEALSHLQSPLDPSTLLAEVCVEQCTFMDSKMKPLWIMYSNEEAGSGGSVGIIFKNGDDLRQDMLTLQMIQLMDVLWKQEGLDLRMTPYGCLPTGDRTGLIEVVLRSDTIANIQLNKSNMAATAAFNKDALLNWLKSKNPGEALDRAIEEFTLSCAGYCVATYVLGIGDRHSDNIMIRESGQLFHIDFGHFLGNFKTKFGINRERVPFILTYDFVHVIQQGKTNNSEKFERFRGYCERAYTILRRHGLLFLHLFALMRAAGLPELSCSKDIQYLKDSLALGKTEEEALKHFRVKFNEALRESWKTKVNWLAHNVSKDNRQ
Sequence (P27986 whole entry partner): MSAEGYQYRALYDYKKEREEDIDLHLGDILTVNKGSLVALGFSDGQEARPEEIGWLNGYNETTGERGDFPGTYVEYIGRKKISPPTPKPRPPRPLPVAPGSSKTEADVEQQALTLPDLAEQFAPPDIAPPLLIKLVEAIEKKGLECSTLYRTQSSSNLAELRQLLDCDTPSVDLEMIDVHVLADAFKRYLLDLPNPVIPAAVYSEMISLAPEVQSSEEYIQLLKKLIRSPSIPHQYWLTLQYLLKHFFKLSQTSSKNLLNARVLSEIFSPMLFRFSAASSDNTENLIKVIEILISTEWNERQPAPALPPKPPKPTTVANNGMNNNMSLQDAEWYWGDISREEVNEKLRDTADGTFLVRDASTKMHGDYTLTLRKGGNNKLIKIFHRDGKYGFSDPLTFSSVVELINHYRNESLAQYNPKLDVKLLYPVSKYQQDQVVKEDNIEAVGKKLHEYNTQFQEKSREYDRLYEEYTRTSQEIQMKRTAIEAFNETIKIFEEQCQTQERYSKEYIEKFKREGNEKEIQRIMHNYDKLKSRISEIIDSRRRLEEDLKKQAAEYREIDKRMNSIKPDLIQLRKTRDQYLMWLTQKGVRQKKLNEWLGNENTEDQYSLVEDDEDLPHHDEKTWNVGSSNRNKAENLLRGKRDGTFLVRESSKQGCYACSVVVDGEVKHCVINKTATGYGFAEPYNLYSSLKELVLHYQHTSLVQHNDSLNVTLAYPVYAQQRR
OBSERVABLE: IC50

Some entries whose results are on file:
COMPOUND	OBSERVABLE	READING
CN1CCN(C2CN(c3ccc4ncc(-c5ccc6oc(N)nc6c5)cc4n3)C2)CC1 [Compound 84]	IC50	> 10 µM
Nc1nc2cc(-c3cnc4ccc(N5C6CCC5COC6)nc4c3)ccc2o1 [Compound 81]	IC50	> 10 µM

Could you now consider this next compound?
Form field: reported IC50 of CC1CN(C2CN(c3cnc4ccc(-c5ccc6oc(N)nc6c5)nc4n3)C2)CCO1 (stereo not drawn) [Compound 18]
> 10 µM

---

System: MDA-MB-361
Experiment: MDA-MB-361 proliferation
Format: cell-based
Conditions: Homo sapiens; in vitro IC50, MDA-MB-361 cells
Protocol: The ability of one or more subject compounds to inhibit tumor cell line proliferation is determined according to standard procedures known in the art. For instance, an in vitro cellular proliferation assay can be performed to measure the metabolic activity of live cells. The assay is performed in a 96 well microtiter plate using Alamar Blue reduction. […] Alamar Blue fluoresce is read at 560 Ex/590 Em, and IC50 values are calculated using GraphPad Prism 5. […]
Reported IC50 values follow for various molecules

MOLECULE	OBSERVABLE	READING
C[C@@H](N)C(=O)N1CCN(c2cnc3ccc(-c4ccc5oc(N)nc5c4)nc3c2)CC1	IC50	< 10 µM
CN1CCN(c2cnc3ccc(-c4ccc5oc(N)nc5c4)nc3n2)CC1	IC50	< 10 µM

Form field: reported IC50 of C[C@H]1CN(C2CN(c3cnc4ccc(-c5ccc6oc(N)nc6c5)nc4n3)C2)CCN1
< 10 µM

Next entry: CN1CC2CN(c3cnc4ccc(-c5ccc6oc(N)nc6c5)nc4c3)CC2C1 (centres unmarked)
< 10 µM

Next entry: CC(C)N1CCN(C2CN(c3cnc4ccc(-c5ccc6oc(N)nc6c5)nc4c3)C2)CC1
< 1 µM

Next entry: CCOC(=O)N1CCN(c2cnc3ccc(-c4ccc5oc(N)nc5c4)nc3n2)CC1
< 1 µM

Next entry: Nc1nc2cc(-c3ccc4ncc(N5CC(N6CCNCC6)C5)nc4n3)ccc2o1
> 10 µM

Next entry: CN1CCN(C2CN(c3cnc4ccc(-c5ccc6oc(N)nc6c5)nc4c3)C2)CC1
< 1 µM
